method_notes: NCI Yeast Anticancer Drug Screen. Data for the mlh1 rad18 strain (AID 175)
protocol_conditions: S. cerevisiae mlh1 rad18 strain growth inhibition; at 50.0 µM; hits give high values
Compounds without any hit were thinned out: in the full panel of roughly 79,000, 15% have a hit. The source made the active and inactive calls. Rule as the data show it: active = growth inhibition above about 70%; inactive = the rest.
Quick reference for growth inhibition among some compounds
readout_kind: growth inhibition

# compound, assay_result
data = [
    ("COc1ccc2c(c1)Cc1ccccc1C2=O", "9.1% (inactive)"),
    ("O=c1c(Cc2c[nH]c3ccccc23)coc2ccccc12", "21.8% (inactive)"),
    ("CC(=O)N1C=C2CCC3c4ccccc4NC3C2CC1 (centres undefined)", "19.1% (inactive)"),
    ("COc1ccccc1/C=C(\\NC(=O)c1ccccc1)c1nc2ccccc2[nH]1", "96.4% (active)"),
]

---

method_notes: NCI Yeast Anticancer Drug Screen. Data for the cln2 rad14 strain (AID 165);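 also: 0% = growth equal to vehicle treated cultures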
protocol_conditions: S. cerevisiae cln2 rad14 strain, at 5.0 µM (retest, dose inferred, filed as 0.5), hits give high values
Compounds without any hit were thinned out: in the full panel of roughly 79,000, 15% have a hit. Active and inactive are the calls of the source. Cut-off read from the data, not from the text of the source: active = growth inhibition above about 70%; inactive = the rest.
readout_kind: growth inhibition

# smiles_record, assay_result
measured = [
    ("COc1ccnc2c1C(=O)c1nc3ccccc3c3ccnc-2c13", "2% (inactive)"),
    ("CCCCCCC(O)(CCCCCC)CCCCCC", "1% (inactive)"),
    ("CC(=O)Oc1ccc(N=[N+]([O-])c2ccc(OC(C)=O)cc2)cc1", "10% (inactive)"),
    ("FC(F)(F)c1ccc(Cl)c(NC(=S)SC2CCCCC2)c1", "-30% (inactive)"),
]

---

method_notes: NCI Yeast Anticancer Drug Screen. Data for the sgs1 mgt1 strain (AID 161);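 also: 0% = growth of cultures given vehicle only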
protocol_conditions: S. cerevisiae sgs1 mgt1 strain, at 50.0 µM
Compounds without any hit were thinned out: in the full panel of roughly 79,000, 15% have a hit. Activity calls are given as the source filed them. No stated cut-off is given here; in the data, active means growth inhibition above about 70%; inactive means the rest.
Outcomes: active, inactive

# compound, cat
measured = [
    ("C=CC(=O)Nc1ccccc1CC(c1c[nH]c2ccccc12)c1c[nH]c2ccccc12", "active"),
    ("O=C1NN=C(c2ccc(Cl)cc2)CC1C1C(=O)N(c2ccccc2)N=C1c1ccccc1 (stereo unspecified)", "active"),
    ("CCCCCCCCCCOC(=O)Nc1ccc(C)c(NC(=O)OCCCCCCCCCC)c1", "inactive"),
    ("CC1CC(c2ccccc2)(c2ccccc2)C(=O)C(C)N1C (stereo unspecified)", "inactive"),
    ("CC1(c2ccc(S(=O)(=O)c3ccccc3)cc2)OC(=O)C=CC1=O (stereo unspecified)", "active"),
    ("S=C1NC2=C(CSC/C2=C\\c2cccc(Br)c2)C(c2cccc(Br)c2)N1 (stereo unspecified)", "active"),
    ("COC(=O)c1ccc(NN)cc1", "inactive"),
    ("COC(=O)C(=O)C(C(=O)Nc1cccc(C)c1C)C1Sc2ccccc2NC1=O (stereo unspecified)", "inactive"),
    ("COc1ccc2c(c1)[n+]([O-])c(-c1ccc(Cl)cc1)c(N)[n+]2[O-]", "active"),
    ("CCCCC(C)(C)OC(=O)Nc1ccc(Br)cc1", "active"),
    ("Cc1ccc(C2=C(C#N)C(c3ccccc3)C(C#N)=C(N)O2)cc1 (stereo unspecified)", "active"),
    ("COC1=C(NC(C)=O)C(=O)c2nc(-c3nc(C(=O)O)c(C)c(-c4ccc(OC)c(OC)c4O)c3N)ccc2C1=O", "inactive"),
    ("CCCCCCCCCCCCCCNCC(OCC)OCC", "active"),
    ("Cc1nc(C(N)=S)sc1/C(CC(=O)C(=O)Nc1cccc2ccc(O)cc12)=N\\NC(=O)c1ccncc1", "inactive"),
    ("CCNc1cc(SC)nc(N)n1", "inactive"),
    ("CCCCCCCN1C(=O)c2ccccc2S1(=O)=O", "active"),
    ("OC(CN1CCCCC1)c1ccc2c(ccc3ccccc32)c1 (stereo unspecified)", "active"),
    ("O=C1NN(C2=NNC3(C(=O)N2)c2ccccc2-c2ccccc23)C(c2ccccc2)=N/C1=C/c1ccc(Cl)cc1", "inactive"),
    ("NS(=O)(=O)c1ccc(-n2cccc2)cc1", "inactive"),
    ("COc1cc2c3c(c4ccc(OC)c(OC)c4c2cc1OC)CN1CCC[C@@H]1C3", "active"),
    ("COc1cccc2c1C(=O)c1c(O)c3c(c(O)c1C2=O)C[C@@](O)(/C(C)=N\\NC=O)C[C@@H]3OC1CC(N)C(O)C(C)O1 (stereo partly specified)", "active"),
    ("O=c1c2c3ccccc3[nH]c2c2cccc3c2n1CCC3", "active"),
    ("CCC(=NCCCCCCN=C(CC)c1cc(C)cc([N+](=O)[O-])c1O)c1cc(C)cc([N+](=O)[O-])c1O.[Fe]", "active"),
    ("CC1CCC(C(C)(C)c2ccc(O)cc2)CC1 (stereo unspecified)", "active"),
    ("S=C(N/N=C1/CCCC/C1=N/NC(=S)N1CCOCC1)N1CCOCC1", "active"),
    ("C/C([O-])=C1\\Cc2ccccc2C1=O.C/C([O-])=C1\\Cc2ccccc2C1=O.CC[O-].CC[O-].[Ti+4]", "active"),
]
